System: primary human dermal fibroblasts (HDFs)
run.description: alamarBlue cytotoxicity assay against HDFs (in vitro LD50)
Format: cell-based
settings: 24 h
Each entry below lists one item and its recorded LD50 value.
Output spec: scalar in µM, unitless text.

Known results for compounds:
- smiles: "CC(=O)[O][Ag][c]1n(CCCO)c(Cl)c(Cl)[n+]1C"
  target.entity: "primary human dermal fibroblasts (HDFs)"
  LD50 (µM): 22.7
- smiles: "CC(=O)[O][Ag][c]1n(C)c2c(c(=O)n(C)c(=O)n2C)[n+]1C"
  target.entity: "primary human dermal fibroblasts (HDFs)"
  LD50 (µM): 25.8
- smiles: "CC(=O)[O][Ag][c]1n(Cc2ccc3ccccc3c2)c(Cl)c(Cl)[n+]1Cc1ccc2ccccc2c1"
  target.entity: "primary human dermal fibroblasts (HDFs)"
  LD50 (µM): 14.2

// next item, LD50 requested
# input Look up LD50: CCCCCCn1c(Cl)c(Cl)[n+](Cc2ccc3ccccc3c2)[c]1[Ag][O]C(C)=O
# output 9.8
